- System: SEM cells
- assay name: AUC of viability dose-response curve (% viability x log10 dose units); higher = less sensitive
- condition set: HPLM + 10% dialyzed FBS; 48 h
observed property: AUC of viability dose-response curve
Give a plain numeric answer without units written out.

The cases that follow already have their AUC of viability dose-response curve on record.
compound: CN(C)c1nc(Cc2ccc(NC(=O)c3ccc(C(F)(F)F)cc3)cc2)nc(N(C)C)c1CC(=O)O
AUC of viability dose-response curve: 473
--
compound: CC1(C)SCCN([S+](=O)([O-])c2ccc(OCC#CCO)cc2)[C@H]1C(=O)NO
AUC of viability dose-response curve: 449
--
compound: C[C@H](NC(=O)Cc1cc(F)cc(F)c1)C(=O)N[C@H](C(=O)OC(C)(C)C)c1ccccc1
AUC of viability dose-response curve: 418
--
compound: COC1=CC=C(C=C1)/C2=C(O)/C(=O)C3=C(O)C=C(O)C(=C3O2)CC=C(C)C
AUC of viability dose-response curve: 457
--
compound: C=C(c1ccc(C(=O)O)cc1)c1cc2c(cc1C)C(C)(C)CCC2(C)C
AUC of viability dose-response curve: 465

Q: I have this compound here, CN(C)CCCC1(c2ccc(F)cc2)OCc2cc(C#N)ccc21 (stereo not drawn) , and I need its recorded AUC of viability dose-response curve.
A: 447

Q: I have this compound here, C/C1=C2/[N]3[Co+]456([OH])<-[N]7=C1[C@@H](CCC(N)=O)C(C)(C)/C7=C/C1=[N]->4C(=C(/C)C4=[N]->5[C@@](C)([C@H]3[C@H](CC(N)=O)[C@@]2(C)CCC(=O)NC[C@@H](C)OP(=O)([O-])O[C@H]2[C@@H](O)[C@@H](n3c[n]->6c5cc(C)c(C)cc53)O[C@@H]2CO)[C@@](C)(CC(N)=O)[C@@H]4CCC(N)=O)/[C@@](C)(CC(N)=O)[C@@H]1CCC(N)=O , and I need its recorded AUC of viability dose-response curve.
A: 433

Q: I have this compound here, CC1(C)CC\C2=C(/O1)C3=C(C=CC=C3)C(=O)C2=O , and I need its recorded AUC of viability dose-response curve.
A: 437

###

- Test system: SEM cells
- assay name: cell viability relative to DMSO control; higher = less cytotoxic
- condition set: HPLM + 10% dialyzed FBS; 48 h; 0.569 µM
Examples of compounds with documented cell viability follow.
Note: unit % is implicit; provide only the numeric part.

compound: COc1cc(NCc2ccc3nc(N)nc(N)c3c2C)cc(OC)c1OC
study system: SEM cells
observed result: 99.7
//
compound: C=CC(=O)Nc1cc2c(Nc3ccc(F)c(Cl)c3)ncnc2cc1C#CC(C)(C)N1CCN(C)CC1
study system: SEM cells
observed result: 92.3
//
compound: CCOC(=O)N1CCN(/[N+]([O-])=N/Oc2cc(O/N=[N+](\[O-])N3CCN(C(=O)OCC)CC3)c([N+](=O)[O-])cc2[N+](=O)[O-])CC1
study system: SEM cells
observed result: 122
//
compound: CN1CC[C@H]([C@@H](O)C1)C2=C(O)C=C(O)C3=C2O\C(=C/C3=O)C4=CC=CC=C4Cl
study system: SEM cells
observed result: 23
//
compound: Nc1nc(F)nc2c1ncn2[C@@H]1O[C@H](COP(=O)(O)O)[C@@H](O)[C@@H]1O
study system: SEM cells
observed result: 123

Q: I have this compound here, CC(=O)OCC(=O)[C@@]1(O)CC[C@H]2[C@@H]3CCC/4=C/C(=O)CC[C@]4(C)[C@H]3C(=O)C[C@]12C , and I need its recorded cell viability.
A: 84.5

Q: I have this compound here, CCc1ccc(OCc2ccccc2C(=O)Nc2ccc3nc(C)cc(N)c3c2)cc1 , and I need its recorded cell viability.
A: 110

Q: I have this compound here, COC1=CC=C(C=C1)/C2=C(O)/C(=O)C3=C(O)C=C(O)C(=C3O2)CC=C(C)C , and I need its recorded cell viability.
A: 109

Q: I have this compound here, O=C(c1cncc(Br)c1)N1CCC(N2CCCC2)CC1 , and I need its recorded cell viability.
A: 106

Q: I have this compound here, CC1(C)CC\C2=C(/O1)C3=C(C=CC=C3)C(=O)C2=O , and I need its recorded cell viability.
A: 98.8

Q: I have this compound here, CN(C)c1nc(Cc2ccc(NC(=O)c3ccc(C(F)(F)F)cc3)cc2)nc(N(C)C)c1CC(=O)O , and I need its recorded cell viability.
A: 123

Q: I have this compound here, O=C1NC(=O)/C(=C/c2ccc3nccnc3c2)S1 , and I need its recorded cell viability.
A: 109

Q: I have this compound here, OC[C@H]1O[C@H](C[C@@H]1O)N2/C=C(C(=O)NC2=O)/C(F)(F)F , and I need its recorded cell viability.
A: 72.5

Q: I have this compound here, Oc1ccc(OCc2ccccc2)cc1 , and I need its recorded cell viability.
A: 106

Q: I have this compound here, CN1CCc2c(c3ccccc3n2Cc2ccc(C(=O)NO)cc2)C1 , and I need its recorded cell viability.
A: 70.7

Q: I have this compound here, O=C(/C=C/c1ccc(/C=C/C(=O)Nc2ccc(C3=NCCN3)cc2)cc1)Nc1ccc(C2=NCCN2)cc1 , and I need its recorded cell viability.
A: 115

Q: I have this compound here, N[S+](=O)([O-])c1ccc(Nc2nc(OCC3CCCCC3)c3[nH]cnc3n2)cc1 , and I need its recorded cell viability.
A: 43

Q: I have this compound here, CC(C)c1onc(-c2c(Cl)cccc2Cl)c1COc1ccc(/C=C/c2cccc(C(=O)O)c2)c(Cl)c1 , and I need its recorded cell viability.
A: 115

Q: I have this compound here, CC(C)(N)c1ccc(-c2nc3ccccc3nc2-c2ccccc2)cc1 , and I need its recorded cell viability.
A: 6.7

Q: I have this compound here, C[C@]12CCC3c4ccc(O)cc4CCC3C1CCC2=O (stereo partly drawn) , and I need its recorded cell viability.
A: 62.2

Q: I have this compound here, O=C(O)CCCCCC(=O)NN=C1CCCC1 , and I need its recorded cell viability.
A: 114

Q: I have this compound here, O=C(O)c1ccc(O)c2ncc(N3CCOCC3)cc12 , and I need its recorded cell viability.
A: 116

Q: I have this compound here, CC[C@H]1OC(=O)[C@H](C)[C@@H](O[C@H]2C[C@@](C)(OC)[C@@H](O)[C@H](C)O2)[C@H](C)[C@@H](O[C@@H]2O[C@H](C)C[C@H](N(C)C)[C@H]2O)[C@](C)(OC)C[C@@H](C)C(=O)[C@H](C)[C@@H](O)[C@]1(C)O , and I need its recorded cell viability.
A: 93.8

Q: I have this compound here, CNC(=O)c1ccc2c(c1)NC(=O)/C2=C(\Nc1cccc(CN(C)C)c1)c1ccccc1 , and I need its recorded cell viability.
A: 78.1

Q: I have this compound here, Cc1ccc(Nc2cc(-c3cccc(N4C(=O)c5ccccc5C4=O)c3)ncn2)cc1N[S+](C)(=O)[O-] , and I need its recorded cell viability.
A: 117

Q: I have this compound here, CN(CCOc1ccc(CC2SC(=O)NC2=O)cc1)c1ccccn1 (stereo not drawn) , and I need its recorded cell viability.
A: 117

Q: I have this compound here, Cc1ccc(C(=O)Nc2cccc(C(F)(F)F)c2)cc1Nc1nc(-c2cccnc2)nc2c1cnn2C , and I need its recorded cell viability.
A: 90.5

Q: I have this compound here, COc1ccc(F)c(F)c1C(=O)c1cnc(NC2CCN([S+](C)(=O)[O-])CC2)nc1N , and I need its recorded cell viability.
A: 64.6

###

Examples of molecules with documented cell viability follow.
- System: SEM cells
- assay name: cell viability relative to DMSO control; higher = less cytotoxic
- condition set: HPLM + 10% dialyzed FBS; 48 h; 0.19 µM
Note: unit % is implicit; provide only the numeric part.

The cases that follow already have their cell viability on record.
structure notation: NC(=O)c1cnccn1
cell viability (%): 120
//
structure notation: CCOC(=O)N1CCN(/[N+]([O-])=N/Oc2cc(O/N=[N+](\[O-])N3CCN(C(=O)OCC)CC3)c([N+](=O)[O-])cc2[N+](=O)[O-])CC1
cell viability (%): 115
//
structure notation: Cc1nc(-c2ccc(OCC(C)C)c(C#N)c2)sc1C(=O)O
cell viability (%): 104
//
structure notation: CC1(C)SCCN([S+](=O)([O-])c2ccc(OCC#CCO)cc2)[C@H]1C(=O)NO
cell viability (%): 99.6
//
structure notation: COCCn1c2c([n+](Cc3cnccn3)c1C)C(=O)c1ccccc1C2=O
cell viability (%): 11.2

Turning now to a further molecule:
Q: I have this molecule here, O=C1NC(=O)/C(=C/c2ccc3nccnc3c2)S1 , and I need its recorded cell viability.
A: 113

###

- System: NOMO1
- assay name: AUC of viability dose-response curve (% viability x log10 dose units); higher = less sensitive
- condition set: HPLM + 10% dialyzed FBS; 48 h
observed property: AUC of viability dose-response curve
Give a plain numeric answer without units written out.

The cases that follow already have their AUC of viability dose-response curve on record.
structure notation: O=C(O)c1cc(O)c2c(c1)C(=O)c1cccc(O)c1C2=O
AUC of viability dose-response curve: 464
//
structure notation: COCCn1c2c([n+](Cc3cnccn3)c1C)C(=O)c1ccccc1C2=O
AUC of viability dose-response curve: 194

Turning now to a further molecule:
Q: I have this molecule here, O=C(O)c1ccc(O)c2ncc(N3CCOCC3)cc12 , and I need its recorded AUC of viability dose-response curve.
A: 447
